Sourced from ChEMBL document CHEMBL3091339

- experimentalTarget: Carbonic anhydrase 1 (Homo sapiens, UniProt P00915)
- Sequence (P00915 whole entry): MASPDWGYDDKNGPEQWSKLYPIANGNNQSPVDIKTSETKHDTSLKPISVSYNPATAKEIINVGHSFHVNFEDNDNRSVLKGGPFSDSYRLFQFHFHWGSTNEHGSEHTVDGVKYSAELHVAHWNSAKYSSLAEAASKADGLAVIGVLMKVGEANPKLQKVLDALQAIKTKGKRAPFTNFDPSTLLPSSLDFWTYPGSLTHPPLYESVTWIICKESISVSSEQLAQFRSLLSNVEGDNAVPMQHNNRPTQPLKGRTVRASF
quantityName: pKi
When answering, recall that pKi equals minus log10 of the concentration in mol/L, and write that number alone.

### Prompt Supply pKi value. Item: `NS(=O)(=O)NC[C@H]1COc2cc(Cl)ccc2O1`
### Response 5.66

###

- assayDetails: in vivo
- assayConditions: rat, po, 10 mg/kg
quantityName: Tmax (min)
Expressed in min, but write only the number.

### Prompt Give reported Tmax value for NS(=O)(=O)NC[C@H]1COc2cc(Cl)ccc2O1 [JNJ-26489112]
### Response 53

###

- experimentalTarget: Carbonic anhydrase 1 (Homo sapiens, UniProt P00915)
quantityName: IC50 (µM)
Give the quantity in µM, number only.

### Prompt Output IC50 of `NS(=O)(=O)NC[C@H]1COc2cc(Cl)ccc2O1`
### Response 18

###

- assayDetails: Cmax in rat at 10 mg/kg, po
- Type: ADME, organism-based
- Set-up: dose 10 mg/kg, route oral
- assayConditions: in vivo
quantityName: Cmax
Quote the value and follow it with the unit of measurement.

### Prompt Identify the reported Cmax for the following entry. NS(=O)(=O)NC[C@H]1COc2cc(Cl)ccc2O1 [JNJ-26489112]
### Response 9090 ng/mL

###

- assayDetails: Clearance in beagle dog at 2 mg/kg, iv
- Format: ADME, organism-based, Canis lupus familiaris
- Parameters: dose 2 mg/kg, route intravenous
- assayConditions: in vivo
quantityName: clearance (mL/min/kg)
Give the number; mL/min/kg is assumed, so skip it.

### Prompt Provide measured clearance value, entry: NS(=O)(=O)NC[C@H]1COc2cc(Cl)ccc2O1 [JNJ-26489112]
### Response 0.5

###

- assayDetails: Neurotoxicity in rat by positional sense test
- Format: toxicity, organism-based
- assayConditions: in vivo
quantityName: NOAEL (mg/kg)
Kindly provide the numeric value in mg/kg only, without the unit symbol.

### Prompt Answer with reported NOAEL of `NS(=O)(=O)NC[C@H]1COc2cc(Cl)ccc2O1`
### Response 500

###

- experimentalTarget: Voltage-dependent N-type calcium channel subunit alpha-1B (Rattus norvegicus, UniProt Q02294)
- Sequence (Q02294 whole entry): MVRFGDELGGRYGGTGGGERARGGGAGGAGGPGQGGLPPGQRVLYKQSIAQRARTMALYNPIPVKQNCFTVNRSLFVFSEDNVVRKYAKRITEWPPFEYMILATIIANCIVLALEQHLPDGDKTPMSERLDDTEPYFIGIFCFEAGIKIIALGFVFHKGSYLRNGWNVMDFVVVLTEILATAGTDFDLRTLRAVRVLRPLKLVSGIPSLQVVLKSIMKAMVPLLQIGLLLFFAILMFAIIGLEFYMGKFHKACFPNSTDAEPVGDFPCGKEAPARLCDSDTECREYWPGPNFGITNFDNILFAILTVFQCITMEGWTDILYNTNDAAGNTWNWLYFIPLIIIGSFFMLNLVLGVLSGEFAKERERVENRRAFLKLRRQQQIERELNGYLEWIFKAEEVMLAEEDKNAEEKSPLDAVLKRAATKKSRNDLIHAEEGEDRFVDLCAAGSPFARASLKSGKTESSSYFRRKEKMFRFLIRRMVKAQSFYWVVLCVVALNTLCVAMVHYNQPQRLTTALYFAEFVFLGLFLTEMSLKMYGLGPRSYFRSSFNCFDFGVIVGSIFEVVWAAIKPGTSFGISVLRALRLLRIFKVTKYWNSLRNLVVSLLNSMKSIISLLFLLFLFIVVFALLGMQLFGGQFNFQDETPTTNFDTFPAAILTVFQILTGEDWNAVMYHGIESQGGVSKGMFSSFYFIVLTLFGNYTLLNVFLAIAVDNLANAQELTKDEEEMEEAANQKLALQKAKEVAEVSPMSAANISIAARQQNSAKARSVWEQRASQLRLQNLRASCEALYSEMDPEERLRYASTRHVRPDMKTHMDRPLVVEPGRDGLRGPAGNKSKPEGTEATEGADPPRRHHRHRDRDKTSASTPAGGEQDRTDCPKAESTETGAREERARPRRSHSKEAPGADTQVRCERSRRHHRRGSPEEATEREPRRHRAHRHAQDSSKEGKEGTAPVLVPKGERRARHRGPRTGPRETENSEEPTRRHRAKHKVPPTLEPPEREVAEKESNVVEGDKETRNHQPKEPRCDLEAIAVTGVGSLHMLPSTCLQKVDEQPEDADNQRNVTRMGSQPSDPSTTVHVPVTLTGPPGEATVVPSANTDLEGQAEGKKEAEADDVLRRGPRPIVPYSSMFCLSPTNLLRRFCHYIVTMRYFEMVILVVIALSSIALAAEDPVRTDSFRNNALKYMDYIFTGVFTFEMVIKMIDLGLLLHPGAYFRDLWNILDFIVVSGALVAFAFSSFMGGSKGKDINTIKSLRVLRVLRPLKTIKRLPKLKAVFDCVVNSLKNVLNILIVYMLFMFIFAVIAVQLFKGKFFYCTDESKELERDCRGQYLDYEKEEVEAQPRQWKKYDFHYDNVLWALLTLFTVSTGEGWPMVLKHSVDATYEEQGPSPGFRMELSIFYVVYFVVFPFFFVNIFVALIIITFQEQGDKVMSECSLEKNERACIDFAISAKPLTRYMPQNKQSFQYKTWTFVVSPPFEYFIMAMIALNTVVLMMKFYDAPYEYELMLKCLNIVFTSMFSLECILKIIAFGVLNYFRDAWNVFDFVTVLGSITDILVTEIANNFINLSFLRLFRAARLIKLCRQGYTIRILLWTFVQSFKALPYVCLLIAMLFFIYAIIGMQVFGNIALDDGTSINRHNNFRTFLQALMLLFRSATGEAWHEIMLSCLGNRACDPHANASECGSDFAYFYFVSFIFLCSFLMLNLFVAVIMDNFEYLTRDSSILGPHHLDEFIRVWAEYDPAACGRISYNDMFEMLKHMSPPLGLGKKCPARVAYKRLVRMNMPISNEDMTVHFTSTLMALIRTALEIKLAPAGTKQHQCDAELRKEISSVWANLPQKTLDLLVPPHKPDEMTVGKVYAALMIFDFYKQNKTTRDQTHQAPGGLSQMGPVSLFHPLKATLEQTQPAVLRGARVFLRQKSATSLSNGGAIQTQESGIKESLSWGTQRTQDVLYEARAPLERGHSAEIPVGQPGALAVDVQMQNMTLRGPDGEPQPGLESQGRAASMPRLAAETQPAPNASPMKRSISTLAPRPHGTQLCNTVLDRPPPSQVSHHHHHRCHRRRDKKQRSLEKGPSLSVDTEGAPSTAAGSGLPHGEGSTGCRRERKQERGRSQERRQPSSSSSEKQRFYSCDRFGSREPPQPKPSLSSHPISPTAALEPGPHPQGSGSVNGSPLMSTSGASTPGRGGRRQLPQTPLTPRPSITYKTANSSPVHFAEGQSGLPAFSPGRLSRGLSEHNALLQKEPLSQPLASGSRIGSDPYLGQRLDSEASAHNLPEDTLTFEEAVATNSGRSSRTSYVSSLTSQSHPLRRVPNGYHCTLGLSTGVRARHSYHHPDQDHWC
quantityName: IC50 (µM)
Give just the numeric value; µM need not be written.

### Prompt For the molecule `NS(=O)(=O)NC[C@H]1COc2cc(Cl)ccc2O1` , give its measured IC50 value.
### Response 34

###

- assayDetails: AUC in beagle dog at 10 mg/kg, po
- Type: ADME, organism-based, Canis lupus familiaris
- Parameters: dose 10 mg/kg, route oral
- assayConditions: plasma
quantityName: AUC (µg·h/mL)
Write down the numeric answer in µg·h/mL and omit the unit.

### Prompt Tell me AUC reported for `NS(=O)(=O)NC[C@H]1COc2cc(Cl)ccc2O1`
### Response 212

###

- experimentalTarget: Voltage-dependent N-type calcium channel subunit alpha-1B (Rattus norvegicus, UniProt Q02294)
quantityName: pIC50
Notebook: values listed as pIC50 are -log10 of the concentration (mol/L).

### Prompt Return value of pIC50 for input NS(=O)(=O)NC[C@H]1COc2cc(Cl)ccc2O1 [JNJ-26489112] , no commentary.
### Response 4.15

###

- assayDetails: Neurotoxicity in rat by muscle tone test
- Assay type: toxicity, organism-based, Muscle tissue
- assayConditions: in vivo
quantityName: NOAEL (mg/kg)
Kindly provide the numeric value in mg/kg only, without the unit symbol.

### Prompt Annotate the compound NS(=O)(=O)NC[C@H]1COc2cc(Cl)ccc2O1 [JNJ-26489112] with its measured NOAEL.
### Response 500
